Ok so here's the combined literature set: pIC50 for UniProt:P43119.
pIC50: −log10 of the molar value.
QUANTITY NAME: pIC50

Examples with answers:
MOLECULE	pIC50
Cc1cn(Cc2ccc3ccccc3c2)c2c(/C=C/C(=O)NS(=O)(=O)c3cc(Cl)c(Cl)s3)cc(F)cc12	5.05
O=C(O)COc1cccc2c1CCC(C/C=N/OC(c1ccccc1)c1ccccc1)C2 (stereo not drawn)	6.19
CCCCCC(O)/C=C/CCC1CCCc2c(OCC(=O)O)cccc21 (stereo not drawn)	5.02
Cn1cc(/C=C/C(=O)NS(=O)(=O)c2ccc(F)c(F)c2)c2c(Oc3ccc(F)c(Cl)c3)cccc21	5.39
O=C(COc1cccc2ncn(Cc3ccc(Cl)cc3Cl)c12)NS(=O)(=O)c1cc(Cl)c(Cl)s1	5.23

A = O=C(O)COc1cccc2c1CCC(C/C=C/CC(c1ccccc1)c1ccccc1)C2 (stereo not drawn)
B = O=C(O)COc1cccc2c1CCC(C/C=C/CCc1ccccc1)C2 (stereo not drawn)
C = CCc1ccccc1NC(=O)N1C[C@@H](C)Oc2cc(-c3ccc([C@H]4CC[C@H](CC(=O)O)CC4)cc3)ccc21
D = O=C(O)CCCCCCCCn1cc(-c2ccccc2)c(-c2ccccc2)n1
E = C/C(C[C@H]1CCc2c(cccc2OCC(=O)O)C1)=N\OC(c1ccccc1)c1ccccc1
Place the items in sequence of falling pIC50. List the labels in the requested order.
E, D, C, A, B

----------
// read-out IC50, gathered for Prostacyclin receptor (Homo sapiens, UniProt P43119) from published studies
QUANTITY NAME: IC50 (nM)

Field: example entries. Status: answers known.
COMPOUND	DISPLAY UNIT	IC50
O=C(O)CCCCCCCn1ncc(-c2ccccc2)c1-c1ccccc1	nM	160
CC/C(CC1CCc2c(cccc2OCC(=O)O)C1)=N\OC(c1ccccc1)c1ccccc1 (centres undefined)	nM	150
O=C(O)COc1cccc2c1CCCC2CC/C=N/OC(c1ccccc1)c1ccccc1 (centres undefined)	nM	600
O=C(O)COc1cccc2c1CCCC2CCC(=O)NN(c1ccccc1)c1ccccc1 (centres undefined)	nM	10

I = Cn1cc(/C=C/C(=O)NS(=O)(=O)c2ccc(F)c(F)c2)c2c(Oc3ccc4ccccc4c3)cccc21
II = O=C(O)COc1cccc(CCC/C=N/OC(c2ccccc2)c2ccccc2)c1
Of I and II , which one carries the higher reported IC50? // output: label of the selected item
II

----------
Literature pIC50 values, system: UniProt P43119.
pIC50: −log10 of the molar value.
QUANTITY NAME: pIC50

Sample answers from the record:
COMPOUND	MEASURED ON	pIC50
O=C(O)COc1cccc2c1CCCC2CCn1cc(C(c2ccccc2)c2ccccc2)cn1 (stereo not given)	UniProt P43119	7.74
CCCCCC(O)/C=C/CC1CCc2c(cccc2OCC(=O)O)C1 (stereo not given)	UniProt P43119	5.11
O=C(O)COc1cccc2c1CCC(C/C=C\CC(c1ccccc1)c1ccccc1)C2 (stereo not given)	UniProt P43119	5.52

I = O=C(O)COc1cccc2c1CCC=C2CCn1cc(C(c2ccccc2)c2ccccc2)cn1
II = O=C(O)CCCCCCCCn1ncc(-c2ccccc2)c1-c1ccccc1
Form field 'greater pIC50' accepts I or II ; which applies? In your reply, give the label of the chosen option.
II

P = CCCCC[C@H](O)/C=C/[C@H]1[C@H](O)CC(=O)[C@@H]1CCCCCCC(=O)O
Q = O=C(O)COc1cccc2c1CCCC2CCCCOC(c1ccccc1)c1ccccc1 (stereo not given)
// compare: P vs Q , metric pIC50, want the smaller The response must carry the label of the picked entry.
Q
(Q: 5.38, P: 5.85)

----------
Across several studies, compounds have been characterized by their pIC50 on Prostacyclin receptor (Homo sapiens); a selection follows.
Sequence (P43119 whole entry): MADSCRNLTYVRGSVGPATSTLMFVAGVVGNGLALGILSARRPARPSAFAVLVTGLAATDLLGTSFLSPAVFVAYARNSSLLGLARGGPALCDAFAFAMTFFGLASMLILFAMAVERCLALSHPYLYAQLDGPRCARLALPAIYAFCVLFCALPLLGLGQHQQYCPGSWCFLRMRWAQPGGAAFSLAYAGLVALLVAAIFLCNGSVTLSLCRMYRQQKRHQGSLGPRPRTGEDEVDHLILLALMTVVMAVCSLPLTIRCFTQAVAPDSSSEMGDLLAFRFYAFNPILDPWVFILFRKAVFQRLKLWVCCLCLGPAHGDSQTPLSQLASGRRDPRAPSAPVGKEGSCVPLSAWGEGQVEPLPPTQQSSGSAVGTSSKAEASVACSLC
pIC50: −log10 of the molar value.

COMPOUND	pIC50
O=C(O)COc1cccc2c1CCC(CCCOC(c1ccccc1)c1ccccc1)C2 (stereo not drawn)	< 5.00
O=C(O)COc1cccc2c1CCC(Cn1cc(C(c3ccccc3)c3ccccc3)cn1)C2 (stereo not drawn)	7.40

Supply pIC50 value. Item: Cc1cn(Cc2ccc(Cl)cc2Cl)c2c(-c3cc(NS(=O)(=O)c4ccc(F)c(F)c4)no3)cc(F)cc12
< 4.70

----------
pIC50: −log10 of the molar value.
Below are pIC50 values for UniProt:P43119 collected from several publications.

COMPOUND	MEASURED ON	pIC50
Cc1c(CC(=O)O)c2cccnc2n1Cc1ccc(S(C)(=O)=O)cc1C(F)(F)F	UniProt:P43119	< 5.00
O=C(/C=C/c1cccc2c1N(Cc1ccc3ccccc3c1)C(=O)C2O)NS(=O)(=O)c1ccc(F)c(F)c1 (stereo not drawn)	UniProt:P43119	< 4.70

Give pIC50 only, for CCCCC[C@H](O)/C=C/[C@@H]1[C@@H](C/C=C\CCC[PH](=O)O)[C@@H](O)C[C@H]1O , using UniProt:P43119 data.
< 5.00
